Reference for the values: patent US20230027026A1

- Test system: A431 cells
- testDetails: Cellular proliferation (Alamar Blue) assay, A431
- Format: cell-based
- conditionDescription: Homo sapiens, A-431, 72 h, read-out: A431 IC50 (nM)
measuredProperty: IC50

- compound: "C[C@H](c1ccccc1)N1Cc2cnc(Nc3cnn(C)c3)nc2N(c2cccc(NC(=O)/C=C/CN(C)C)c2)C1=O (single isomer, unassigned)"
  value: "≥ 10000 nM"
- compound: "C[C@@H](c1ccccc1)N1Cc2cnc(Nc3cnn(C)c3)nc2N(c2cccc(NC(=O)/C=C/CN(C)C)c2)C1=O (single isomer, unassigned)"
  value: "≥ 10000 nM"

* * *

- system: HER2 (A775_G776insYVMA) expressing Ba/F3 stable cell line (Homo sapiens, UniProt P04626, DUP772-775, cells depend on it)
- Sequence (P04626 with tags, fused parts or gaps DUP772-775): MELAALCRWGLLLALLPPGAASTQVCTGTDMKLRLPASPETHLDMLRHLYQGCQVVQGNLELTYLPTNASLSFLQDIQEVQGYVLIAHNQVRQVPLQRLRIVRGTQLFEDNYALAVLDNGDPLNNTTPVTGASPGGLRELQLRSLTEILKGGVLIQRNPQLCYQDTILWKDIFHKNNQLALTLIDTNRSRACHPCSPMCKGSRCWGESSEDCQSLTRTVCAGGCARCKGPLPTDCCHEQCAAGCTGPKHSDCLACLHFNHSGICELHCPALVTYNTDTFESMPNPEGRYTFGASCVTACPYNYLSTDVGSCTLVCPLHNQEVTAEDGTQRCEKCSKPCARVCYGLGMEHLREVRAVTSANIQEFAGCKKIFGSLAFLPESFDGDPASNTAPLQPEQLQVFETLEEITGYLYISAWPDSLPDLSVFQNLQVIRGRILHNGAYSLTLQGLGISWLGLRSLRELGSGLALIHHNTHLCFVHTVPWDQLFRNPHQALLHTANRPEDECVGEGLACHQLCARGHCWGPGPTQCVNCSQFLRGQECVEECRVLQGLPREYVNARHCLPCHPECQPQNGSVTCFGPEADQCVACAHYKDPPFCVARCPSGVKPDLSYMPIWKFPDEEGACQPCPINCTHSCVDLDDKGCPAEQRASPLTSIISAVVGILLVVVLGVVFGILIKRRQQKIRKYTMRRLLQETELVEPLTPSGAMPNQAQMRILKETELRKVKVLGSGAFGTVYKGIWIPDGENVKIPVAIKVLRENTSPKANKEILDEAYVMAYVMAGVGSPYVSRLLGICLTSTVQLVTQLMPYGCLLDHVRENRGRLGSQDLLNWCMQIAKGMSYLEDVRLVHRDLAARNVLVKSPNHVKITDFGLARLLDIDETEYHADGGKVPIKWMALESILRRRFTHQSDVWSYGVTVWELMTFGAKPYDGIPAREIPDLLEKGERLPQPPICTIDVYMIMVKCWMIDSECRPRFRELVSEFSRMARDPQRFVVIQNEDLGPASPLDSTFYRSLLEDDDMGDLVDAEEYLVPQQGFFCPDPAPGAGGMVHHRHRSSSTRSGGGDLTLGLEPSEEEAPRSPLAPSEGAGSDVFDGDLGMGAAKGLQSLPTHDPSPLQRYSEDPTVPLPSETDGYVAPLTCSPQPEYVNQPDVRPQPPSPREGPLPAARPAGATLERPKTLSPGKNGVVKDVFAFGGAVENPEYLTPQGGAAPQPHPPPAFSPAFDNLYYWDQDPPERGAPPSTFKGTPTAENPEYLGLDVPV
- testDetails: Cellular proliferation (Alamar Blue) assay, HER2 YVMA Ba/F3
- Format: cell-based
- conditionDescription: HER2 A775_G776insYVMA Ba/F3, 72 hr, read-out: YVMA IC50

- smilesRepresentation: "C=CC(=O)Nc1cccc(N2C(=O)N(Cc3ccccc3)Cc3cnc(Nc4ccc(N5CCN(C)CC5)nc4)nc32)c1"
  GI50 [nM]: 90
- smilesRepresentation: "C=CC(=O)Nc1cccc(N2C(=O)N(Cc3ccccc3)Cc3cnc(Nc4ccc(N5CCOCC5)nc4)nc32)c1"
  GI50 [nM]: 67
- smilesRepresentation: "C=CC(=O)Nc1cccc(N2C(=O)N(Cc3ccccc3)Cc3cnc(Nc4cccc5c4CCN5C)nc32)c1"
  GI50 [nM]: 338
